Reported pest or weed control at 250 g/ha by item:
- System: Lolium perenne (LOLPE)
- procedure-details: Glasshouse assay for herbicidal activity (pre- and post-emergence), percentage phytotoxicity
- Type: in vivo
- particulars: Lolium perenne, pre-emergence, 480 h, Rate 250 g/ha; pre-emergence; visual assessment 20 DAA; 100%=total damage, 0%=no damage; read-out: Pre-emergence herbicidal activity (percentage phytotoxicity) LOLPE PRE
Write the value in % as a bare number.

Cc1cc(-c2ccc(F)cn2)cc(C)c1C1C(=O)CC(CC(=O)NCc2cccc(Br)c2)C1=O (stereo not shown): 80

Give the measured pest or weed control at 250 g/ha of Cc1cc(-c2ccc(F)cn2)cc(C)c1C1C(=O)CC(CC(=O)N(C)C(C)(C)C)C1=O (stereo not shown) .
100

Could you tell me which pest or weed control at 250 g/ha is on file for COCCCNC(=O)CC1CC(OC(=O)C(C)(C)C)=C(c2c(C)cc(C)cc2C)C1=O (stereo not shown) ?
90

Recorded pest or weed control at 250 g/ha of C=CCNC(=O)CC1CC(=O)C(c2c(C)cc(-c3ccc(Cl)cn3)cc2C)C1=O (stereo not shown) , please.
100

# get_value(readout='pest or weed control at 250 g/ha', item= Cc1cc(-c2ccc(F)cn2)cc(C)c1C1C(=O)CC(CC(=O)NC/C=C/Cl)C1=O (stereo not shown) )
100

Quick check: pest or weed control at 250 g/ha of Cc1cc(C)c(C2=C(OC(=O)C(C)(C)C)CC(CC(=O)NC3COC3)C2=O)c(C)c1 (stereo not shown) ?
10

// returns reported pest or weed control at 250 g/ha for input COCC(C)(C)NC(=O)CC1CC(=O)C(c2c(C)cc(-c3ccc(F)cn3)cc2C)C1=O (stereo not shown)
100

====

The compounds listed here are annotated with their Post-emergence Crop Selectivity, percentage phytotoxicity, Wheat +CQC.
- Test system: Winter Wheat variety 'Hereward'
- procedure-details: Glasshouse assay for crop safety, post-emergence, +/- safener cloquintocet-mexyl (CQC), percentage phytotoxicity
- Assay type: in vivo
- particulars: 250 g/ha, with safener cloquintocet-mexyl (CQC) seed treatment 0.5 g/kg seed, evaluated after 13 days, 100=total damage, 0=no damage
- Experimental: Test—Glasshouse Assay for Crop Safety. […] The test plants were then grown in a glasshouse under controlled conditions (at 24/16° C., day/night; 14 hours light; 65% humidity) and watered twice daily. After 13 days for pre and post-emergence, the test was evaluated (100=total damage to plant; 0=no damage to plant).
Please respond with the number in % and leave the unit unwritten.

Known Post-emergence Crop Selectivity, percentage phytotoxicity, Wheat +CQC results, listed for orientation:
Cc1cc(-n2cc(Cl)cn2)cc(C)c1C1C(=O)CC(CC(=O)NC(C)(C)C)C1=O (centres unmarked): 0
Cc1cc(-c2ncc(Cl)cc2F)cc(C)c1C1C(=O)CC(CC(=O)NC(C)(C)C)C1=O (centres unmarked): 50
CCC(C)(C)NC(=O)CC1CC(=O)C(c2c(C)cc(C)cc2C)C1=O (centres unmarked): 20
Cc1cc(-n2cc(Cl)cn2)cc(C)c1C1C(=O)CC(CC(=O)NC2CCCC2)C1=O (centres unmarked): 20
Cc1cc(-c2ncc(F)cn2)cc(C)c1C1C(=O)CC(CC(=O)NCc2cccc(Cl)c2)C1=O (centres unmarked): 40
Cc1cc(C)c(C2C(=O)CC(CC(=O)NCCc3ccccc3)C2=O)c(C)c1 (centres unmarked): 0
Cc1cc(C)c(C2C(=O)CC(CC(=O)NC(C)(C)C)C2=O)c(C)c1 (centres unmarked): 10

For the next question, use this compound.
Bench note: what Post-emergence Crop Selectivity, percentage phytotoxicity, Wheat +CQC did Cc1cc(C)c(C2C(=O)CC(CC(=O)NCC3CC3)C2=O)c(C)c1 (centres unmarked) show?
40

====

- Test system: Lolium perenne (LOLPE)
- procedure-details: Glasshouse assay for herbicidal activity (pre- and post-emergence), percentage phytotoxicity
- Type: in vivo
- particulars: Lolium perenne, pre-emergence, 480 h, 250 g/ha; pre-emergence; 20 DAA; visual assessment (100%=total damage, 0%=no damage); read-out: Pre-emergence herbicidal activity (percentage phytotoxicity) LOLPE PRE
measurement-type: pest or weed control at 250 g/ha (%)
Report the value in % with no unit label.

Reference set (7 entries):
Cc1cc(Br)cc(C)c1C1C(=O)CC(CC(=O)NCC2CC2)C1=O (centres unmarked): 90
Cc1cc(C)c(C2C(=O)CC(CC(=O)NCc3ccc(F)cc3)C2=O)c(C)c1 (centres unmarked): 90
CCC(C)NC(=O)CC1CC(=O)C(c2c(C)cc(Br)cc2C)C1=O (centres unmarked): 90
C/C=C/c1cc(C)c(C2C(=O)CC(CC(=O)N3CCOCC3)C2=O)c(CC)c1 (centres unmarked): 50
Cc1cc(-c2ncc(Cl)cc2F)cc(C)c1C1C(=O)CC(CC(N)=O)C1=O (centres unmarked): 90
Cc1cc(Br)cc(C)c1C1C(=O)CC(CC(=O)NC(C)C)C1=O (centres unmarked): 90
Cc1cc(C)c(C2C(=O)CC(CC(=O)NCC(F)(F)F)C2=O)c(C)c1 (centres unmarked): 90

Which pest or weed control at 250 g/ha value is on record for Cc1cc(C)c(C2C(=O)CC(CC(=O)NC3=NOC(C)(C)C3)C2=O)c(C)c1 (centres unmarked) ?
0

====

- System: Lolium perenne (LOLPE)
- procedure-details: Glasshouse assay for herbicidal activity (pre- and post-emergence), percentage phytotoxicity
- Type: in vivo
- particulars: Lolium perenne, pre-emergence, 480 h, PRE-emergence, rate 250 g/ha, visual score 20 DAA (100%=total damage, 0%=no damage); read-out: Pre-emergence herbicidal activity (percentage phytotoxicity) LOLPE PRE
measurement-type: pest or weed control at 250 g/ha (%)
Write the answer as a number in %, unit excluded.

A selection of reference data follows.
CC#Cc1cc(C)c(C2C(=O)CC(CC(=O)NCc3ccc(C#N)cc3)C2=O)c(C)c1 (centres unmarked): 90
COc1ccc(CNC(=O)CC2CC(=O)C(c3c(C)cc(-n4cc(Cl)cn4)cc3C)C2=O)cc1 (centres unmarked): 70
C=CC(C)NC(=O)CC1CC(=O)C(c2c(C)cc(-c3ncc(F)cn3)cc2C)C1=O (centres unmarked): 100
C#CC(C)(C)NC(=O)CC1CC(=O)C(c2c(C)cc(-n3cc(Cl)cn3)cc2C)C1=O (centres unmarked): 90
CNC(=O)CC1CC(=O)C(c2c(C)cc(-c3ncc(F)cc3F)cc2C)C1=O (centres unmarked): 100
C/C=C/c1cc(C)c(C2C(=O)CC(CC(=O)NCc3cccc(F)c3)C2=O)c(CC)c1 (centres unmarked): 80
CCc1cc(OCC(F)(F)F)cc(C)c1C1C(=O)CC(CC(=O)NCc2cccc(F)c2)C1=O (centres unmarked): 90

For the next question, use this compound.
Consider the compound shown here: CC#Cc1cc(C)c(C2C(=O)CC(CC(=O)NCc3ccc(OC)cc3)C2=O)c(C)c1 (centres unmarked) What is its recorded pest or weed control at 250 g/ha?
100

====

- Tested on: Lolium perenne (LOLPE)
- procedure-details: Glasshouse assay for herbicidal activity (pre- and post-emergence), percentage phytotoxicity
- Assay type: in vivo
- particulars: Lolium perenne, pre-emergence, 480 h, PRE-emergence, rate 250 g/ha, visual score 20 DAA (100%=total damage, 0%=no damage); read-out: Pre-emergence herbicidal activity (percentage phytotoxicity) LOLPE PRE
- Experimental: Test—Glasshouse Assay for Herbicidal Activity Seeds of a variety of monocotyledonous and dicotyledonous test plants are sown in standard soil in pots. The plants are cultivated for one day (for pre-emergence (PRE)) or for about 12 days (for post-emergence (POST)) under controlled conditions in a glasshouse (warm climate species at 24/18° C., cool climate species at 20/16° C., both at day/night; 16 hours light; 65% humidity). […]
Reported pest or weed control at 250 g/ha is given for each of the following compounds.
Answer with a number only, understood to be in %.

Sample records with pest or weed control at 250 g/ha:
Cc1cc(-c2ncc(F)cc2F)cc(C)c1C1C(=O)CC(CC(=O)NCc2ccc(C#N)cn2)C1=O (centres unmarked) [Compound B202]: 60
C#CCNC(=O)CC1CC(=O)C(c2c(C)cc(-c3ncc(F)cn3)cc2C)C1=O (centres unmarked) [Compound B333]: 100
CCc1cc(C)cc(C)c1C1C(=O)CC(CC(=O)NC(C)C)C1=O (centres unmarked) [Compound B255]: 100
C/C=C/c1cc(C)c(C2C(=O)CC(CC(=O)N(C)CC)C2=O)c(CC)c1 (centres unmarked) [Compound B194]: 100
Cc1cc(-c2ncc(Cl)cc2F)cc(C)c1C1C(=O)CC(CC(=O)NCC(C)(C)C)C1=O (centres unmarked) [Compound B178]: 100
CCc1cc(C)cc(C)c1C1C(=O)CC(CC(=O)NCc2cccc(Cl)c2)C1=O (centres unmarked) [Compound B251]: 90

Please give the measured pest or weed control at 250 g/ha for this compound: Cc1cc(-c2ncc(Cl)cc2F)cc(C)c1C1C(=O)CC(CC(=O)NCC2CC2(F)F)C1=O (centres unmarked) [Compound B197]
90

Field request: pest or weed control at 250 g/ha | item: COCC(C)NC(=O)CC1CC(=O)C(c2c(C)cc(-n3cc(Cl)cn3)cc2C)C1=O (centres unmarked) [Compound B309]
80

# lookup: pest or weed control at 250 g/ha of CCc1cc(OCC(F)(F)F)cc(C)c1C1C(=O)CC(CC(N)=O)C1=O (centres unmarked) [Compound B167]
100

Which pest or weed control at 250 g/ha value belongs to C/C=C/c1cc(C)c(C2C(=O)CC(CC(=O)N(C)C(C)(C)C)C2=O)c(CC)c1 (centres unmarked) [Compound B274] ?
70
